Origin of measurements: PubChem BioAssay (NCI)

- Test system: K-562 leukemia
- TEST: NCI tumour cell line growth inhibition, 48 h
RESULT TYPE: TGI

Some solved cases for reference:
COMPOUND: Clc1ccccc1-c1nc2ccc(C34CC5CC(CC(C5)C3)C4)cc2[nH]1
TGI: > 100 µM

COMPOUND: CCCCCCCC(=O)OCC/C=C/C1OC1C1OC(=O)/C=C\C=C\c2nc(oc2C)/C=C(/C)CCC2OC2C1OC(=O)NC(C)=O (stereo not given)
TGI: 1.51 µM

COMPOUND: O=S(=O)(O)C1=C2Sc3ccccc3N=C2c2ccccc2C1
TGI: 36.1 µM

COMPOUND: CNC(=O)C1CCc2nnc(-c3ccccc3)n21 (stereo not given)
TGI: > 100 µM

COMPOUND: CCCC(=O)OCC1OC(n2cnc3c(=S)nc[nH]c32)C(OC(=O)CCC)C1OC(=O)CCC (stereo not given)
TGI: > 100 µM

# per-item lookup of TGI; items listed below
1. O=C(O)c1ccccc1/C=N/NC1=NCCN1
2. O=C(O)C(=Cc1ccc(-c2ccccc2)cc1)C(=O)O
3. Cc1ccc(NC(=O)CC(=O)n2nc(C)c(N=Nc3ccccc3C(=O)O)c2C)cc1
4. C/C(CC(=O)Nc1cc(C)ccc1C)=N\NC(=O)c1ccncc1

> 100 µM
36.9 µM
> 100 µM
> 100 µM
